Hello, the source for this data is paper PMC2966298, in case you need it.

Sequence of the target: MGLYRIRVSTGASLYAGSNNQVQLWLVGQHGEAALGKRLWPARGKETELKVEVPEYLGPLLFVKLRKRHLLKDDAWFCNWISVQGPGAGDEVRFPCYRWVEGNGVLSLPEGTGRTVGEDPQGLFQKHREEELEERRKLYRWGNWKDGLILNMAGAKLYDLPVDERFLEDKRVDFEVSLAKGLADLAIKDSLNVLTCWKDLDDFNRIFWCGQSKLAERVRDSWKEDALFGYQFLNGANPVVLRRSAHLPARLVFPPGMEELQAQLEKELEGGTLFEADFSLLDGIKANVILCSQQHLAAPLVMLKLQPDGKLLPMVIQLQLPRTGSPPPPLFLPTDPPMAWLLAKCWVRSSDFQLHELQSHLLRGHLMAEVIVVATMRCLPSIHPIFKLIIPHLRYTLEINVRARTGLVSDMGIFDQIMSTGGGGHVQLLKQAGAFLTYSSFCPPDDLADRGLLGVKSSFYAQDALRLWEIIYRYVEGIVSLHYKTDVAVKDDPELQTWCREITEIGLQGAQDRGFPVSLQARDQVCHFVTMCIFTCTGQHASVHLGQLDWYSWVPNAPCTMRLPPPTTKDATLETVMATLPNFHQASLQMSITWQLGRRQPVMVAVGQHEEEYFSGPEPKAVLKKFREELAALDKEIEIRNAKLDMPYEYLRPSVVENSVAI
Value type: pIC50
# reply with the number alone; pIC50 is -log10 of concentration in mol/L

query: Please give the measured pIC50 for this molecule: O=C(NCC#CCSc1nnc(-c2cccc3ccccc23)o1)c1cccs1 [Analogue 56]
result: 5.70

Others:
query: Please report the recorded pIC50 for O=C(OCC#CCNc1nnc(-c2cccc3ccccc23)o1)c1cccs1 [Analogue 60] .
result: 5.89
